EXPERIMENTAL TARGET: T1, BS69 coiled-coil MYND domain (BS69_(CC-MYND), amino acids 480-602) (human, UniProt Q15326 480-602)
T1 chain: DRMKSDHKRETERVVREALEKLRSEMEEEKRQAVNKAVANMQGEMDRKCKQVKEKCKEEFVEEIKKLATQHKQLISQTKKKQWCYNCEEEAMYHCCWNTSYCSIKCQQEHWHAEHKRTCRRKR
TEST SUMMARY: ITC
ENDPOINT LABEL: Kd (nM)
Report the value in nM with no unit label.

In plain terms, type 1 EBNA2 polypeptide T1 EBNA2_(381-455) (domain or fragment) SMPELSPVLGLHQGQGAGDSPTPGPSNAAPVCRNSHTATPNVSPIHEPESHNSPEAPILFPDDWYPPSIDPADLD has a documented Kd of 730
